# System: HOP-92 NSCLC
# assay summary: NCI-60 one-dose screen, 48 h (100 = growth as untreated, 0 = no growth, -100 = all killed)
# experimental parameters: 10 µM unless noted
This is part of a sample that, as a whole, favours compounds with a hit. Of some 83,000 tested, about 20% had one in any assay.
Measured growth, listed per entry for reference.
Write the value in % as a bare number.

Worked examples, 6 molecules total:
Request: I'd like to know its growth. The molecule in question is COc1ccc2c(c1)nnc1c3cccnc3[nH]c21
Response: -36.5

Request: Can you share its growth? I mean this molecule: O=C(CNc1cccnc1)Nc1ccc(C(=O)/C=C/c2ccc(Cl)cc2)cc1
Response: 90.7

Request: So what does the record say about growth for COc1ccc(-c2ccc(NC(=O)Nc3ccc(Cl)c(C(F)(F)F)c3)c(C)n2)cc1 ?
Response: 27

Request: Value lookup for growth; key = Nc1nc(Cl)cc(NCc2ccc(CNc3cc(Cl)nc(N)n3)cc2)n1
Response: 92.9

Request: Requested read-out: growth. Entry: O=C(O)c1ccc(-n2cc(/C=N/Nc3ccc(F)cc3)c(-c3cccc(C(F)(F)F)c3)n2)cc1
Response: 95.9

Request: Looking for the measured growth of CN(C)c1ccc2cc(-c3nc4ccccc4s3)c(N)nc2c1 , can you help?
Response: 85.1

***
Request: Fill in the blank: the reported growth of CC(C)(C)NC(C1=CC(C)(C)c2ccccc2C1=O)c1ccccc1 (stereo not given) is ____.
Response: -50.8

Request: Reported growth, molecule C=C1C(=O)O[C@H]2[C@H]1CC/C(COC(=O)c1cccc3ccccc13)=C\CC[C@@]1(C)O[C@@H]21 : ____
Response: -67.9

Request: Suppose we examine the molecule COc1ccc(-c2[nH]c3ccccc3c2/C=C(\C#N)S(=O)(=O)c2ccccc2)cc1 ; what growth value has been reported?
Response: 65.5

Request: Fill in: growth of O=C1OC(c2ccc(-c3ccccc3)cc2)=C/C1=C/C=C/c1ccccc1 is ___
Response: 68.7

Request: Can you look up the measured growth of Nc1c(C(=O)O)[nH]c(=O)[nH]c1=O for me?
Response: 104
